- protocol_summary: Tmax in Sprague-Dawley rat at 5 mg/kg, po measured after 24 hrs by LC-MS/MS analysis
- Type: ADME, organism-based
- condition: in vivo
quantity_measured: Tmax
Could you kindly put the unit after your number?

IN: State the recorded Tmax for this entry: COc1cc(O)c(-c2cc(-c3ccc(O)cc3)nc(N3CCNCC3)n2)cc1CC=C(C)C
OUT: 11.4 min

----------
- protocol_summary: AUC (0 to t) in Sprague-Dawley rat at 0.5 mg/kg, iv measured after 24 hrs by LC-MS/MS analysis
- Type: ADME, organism-based
- condition: in vivo
quantity_measured: AUC(0-t) at 24 h (ng·h/mL)
Give the value in ng·h/mL but do not write ng·h/mL after it.

IN: Sample COc1cc(O)c(-c2cc(-c3ccc(O)cc3)nc(N3CCNCC3)n2)cc1CC=C(C)C — what was its AUC(0-t) at 24 h?
OUT: 236

----------
- protocol_summary: Cmax in Sprague-Dawley rat at 0.5 mg/kg, iv measured after 24 hrs by LC-MS/MS analysis
- Format: ADME, organism-based
- condition: in vivo
quantity_measured: Cmax
# include the unit after the value

IN: Query: Cmax; subject: COc1cc(O)c(-c2cc(-c3ccc(O)cc3)nc(N3CCNCC3)n2)cc1CC=C(C)C
OUT: 766 ng/mL

----------
- Test system: Isocitrate dehydrogenase [NADP] cytoplasmic (Homo sapiens), O75874 [R132C]
- Sequence (O75874 whole entry R132C): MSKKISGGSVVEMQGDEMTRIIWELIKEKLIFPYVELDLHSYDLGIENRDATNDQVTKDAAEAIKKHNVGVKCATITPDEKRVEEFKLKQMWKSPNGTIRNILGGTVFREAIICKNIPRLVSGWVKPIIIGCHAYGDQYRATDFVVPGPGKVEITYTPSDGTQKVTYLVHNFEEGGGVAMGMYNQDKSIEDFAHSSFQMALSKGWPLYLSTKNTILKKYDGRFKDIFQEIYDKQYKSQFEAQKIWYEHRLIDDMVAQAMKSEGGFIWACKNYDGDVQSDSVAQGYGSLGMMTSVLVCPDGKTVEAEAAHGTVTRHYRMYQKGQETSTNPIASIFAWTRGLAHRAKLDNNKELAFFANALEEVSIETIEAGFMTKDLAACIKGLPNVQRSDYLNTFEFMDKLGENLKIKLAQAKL
- protocol_summary: Inhibition of recombinant human IDH1 R132C mutant extracted from Escherichia coli BL21 (DE3) cells using alpha-ketoglutarate as substrate at 2 uM incubated for 60 mins in presence of NADPH by absorbance based assay relative to control
The source made the active and inactive calls. The rule behind the calls is not given here.
quantity_measured: inhibition

> print(dat)
                                   compound                              assay.target  quantity.measured  reported.result
1  COc1cc(O)c(-c2cc(-c3ccc(O)cc3)ncn2)cc1CC=C(C)C  Isocitrate dehydrogenase [NADP] cytoplasmic (Homo sapiens), O75874 [R132C]         inhibition            58.6%
2  COc1cc(O)c(-c2cc(-c3ccc(O)cc3)nc(C(C)(C)C)n2)cc1CC=C(C)C  Isocitrate dehydrogenase [NADP] cytoplasmic (Homo sapiens), O75874 [R132C]         inhibition            53.1%
3  COc1cc(O)c(-c2cc(-c3ccc(O)cc3)nc(-c3ccncc3)n2)cc1CC=C(C)C  Isocitrate dehydrogenase [NADP] cytoplasmic (Homo sapiens), O75874 [R132C]         inhibition            68.1%
4  COc1cc(O)c(-c2cc(-c3ccc(O)cc3)nc(N3CCOCC3)n2)cc1CC=C(C)C  Isocitrate dehydrogenase [NADP] cytoplasmic (Homo sapiens), O75874 [R132C]         inhibition            94.6%
5  COc1cc(O)c(-c2cc(-c3ccc(O)cc3)nc(-c3cnccn3)n2)cc1CC=C(C)C  Isocitrate dehydrogenase [NADP] cytoplasmic (Homo sapiens), O75874 [R132C]         inhibition            67.3%
6  COc1cc(OC)c(C(=O)/C=C/c2ccc(O)cc2)cc1CC=C(C)C  Isocitrate dehydrogenase [NADP] cytoplasmic (Homo sapiens), O75874 [R132C]         inhibition         inactive
7  COc1cc(O)c(-c2cc(-c3ccc(O)cc3)nc(-c3ccncc3Cl)n2)cc1CC=C(C)C  Isocitrate dehydrogenase [NADP] cytoplasmic (Homo sapiens), O75874 [R132C]         inhibition            74.1%
8  CCCCc1nc(-c2ccc(O)cc2)cc(-c2cc(CC=C(C)C)c(OC)cc2O)n1  Isocitrate dehydrogenase [NADP] cytoplasmic (Homo sapiens), O75874 [R132C]         inhibition            41.2%

Could you now consider this next compound?
IN: If you can, please state the reported inhibition value of COc1cc(O)c(-c2cc(-c3ccc(O)cc3)nc(-c3ccccc3)n2)cc1CC=C(C)C .
OUT: 96.4%

----------
- assay_target: Isocitrate dehydrogenase [NADP] cytoplasmic (Homo sapiens, UniProt O75874, R132C)
- Sequence (O75874 2-414 R132C limits assumed): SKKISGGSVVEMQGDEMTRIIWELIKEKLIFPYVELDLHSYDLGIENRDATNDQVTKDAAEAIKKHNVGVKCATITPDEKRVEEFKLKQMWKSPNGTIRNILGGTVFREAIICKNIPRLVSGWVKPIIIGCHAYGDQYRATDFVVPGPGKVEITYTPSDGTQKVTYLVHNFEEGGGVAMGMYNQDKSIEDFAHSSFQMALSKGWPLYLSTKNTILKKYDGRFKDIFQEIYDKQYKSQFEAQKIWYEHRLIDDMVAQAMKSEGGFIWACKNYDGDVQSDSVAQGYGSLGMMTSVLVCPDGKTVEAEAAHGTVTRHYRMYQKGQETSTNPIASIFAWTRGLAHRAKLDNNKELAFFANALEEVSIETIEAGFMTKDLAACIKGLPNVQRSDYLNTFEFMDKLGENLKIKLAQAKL
- protocol_summary: Inhibition of IDH1 R132C mutant (unknown origin)
quantity_measured: pIC50
By convention, pIC50 is the negative base-10 log of a molar concentration.

IN: Quick check: pIC50 of COc1c(C)cc(NC(=O)c2nn(Cc3ccc(F)cc3)c3c2CN(C(=O)c2ccc[nH]2)C[C@]3(C)C(N)=O)cc1C ?
OUT: 8.06

----------
Listing of recorded inhibition by entry.
- Tested on: Isocitrate dehydrogenase [NADP] cytoplasmic (Homo sapiens), O75874 [R132H]
- Sequence (O75874 whole entry R132H): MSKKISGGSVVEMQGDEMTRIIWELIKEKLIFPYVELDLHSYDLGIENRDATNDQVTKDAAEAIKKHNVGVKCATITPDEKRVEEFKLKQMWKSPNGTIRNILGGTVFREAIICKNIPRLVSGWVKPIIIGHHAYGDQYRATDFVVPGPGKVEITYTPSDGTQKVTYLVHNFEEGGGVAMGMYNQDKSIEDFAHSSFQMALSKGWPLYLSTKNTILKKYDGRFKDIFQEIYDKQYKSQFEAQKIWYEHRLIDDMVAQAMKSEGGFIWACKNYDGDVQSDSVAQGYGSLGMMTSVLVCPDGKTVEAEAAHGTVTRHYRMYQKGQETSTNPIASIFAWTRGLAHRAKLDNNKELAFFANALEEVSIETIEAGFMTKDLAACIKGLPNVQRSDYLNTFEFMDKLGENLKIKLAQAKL
- protocol_summary: Inhibition of recombinant human IDH1 R132H mutant extracted from Escherichia coli BL21 (DE3) cells using alpha-ketoglutarate as substrate at 0.2 uM incubated for 60 mins in presence of NADPH by absorbance based assay relative to control

> print(dat)
                                   molecule                              assay.target  reported.result
1  COc1cc(O)c(-c2cc(-c3ccc(O)cc3)nc(-c3nccs3)n2)cc1CC=C(C)C  Isocitrate dehydrogenase [NADP] cytoplasmic (Homo sapiens), O75874 [R132H]            11.1%
2  COc1ccc(-c2cc(-c3ccc(O)cc3)nc(-c3ncccn3)n2)c(O)c1  Isocitrate dehydrogenase [NADP] cytoplasmic (Homo sapiens), O75874 [R132H]            73.1%
3  COc1cc(O)c(-c2cc(-c3ccc(O)cc3)nc(-c3ncccn3)n2)cc1CC=C(C)C  Isocitrate dehydrogenase [NADP] cytoplasmic (Homo sapiens), O75874 [R132H]            41.3%
4  COc1cc(O)c(-c2cc(-c3ccc(O)cc3)nc(N)n2)cc1CC=C(C)C  Isocitrate dehydrogenase [NADP] cytoplasmic (Homo sapiens), O75874 [R132H]            11.2%
5  COc1cc(O)c(-c2cc(-c3ccc(O)cc3)nc(-c3cnccn3)n2)cc1CC=C(C)C  Isocitrate dehydrogenase [NADP] cytoplasmic (Homo sapiens), O75874 [R132H]            17.2%

IN: Please look up its inhibition: COc1cc(O)c(-c2cc(-c3ccc(O)cc3)nc(N3CCNCC3)n2)cc1CC=C(C)C
OUT: 75.4%

IN: Please give the measured inhibition for this compound: COc1cc(O)c(-c2cc(-c3ccc(O)cc3)nc(N3CCOCC3)n2)cc1CC=C(C)C
OUT: 13.8%

IN: Using the record for COc1cc(O)c(-c2cc(-c3ccc(O)cc3)nc(-c3ccncc3Cl)n2)cc1CC=C(C)C , report its inhibition.
OUT: 10.5%

----------
This section presents compounds with their documented inhibition values.
- Tested on: Isocitrate dehydrogenase [NADP] cytoplasmic (Homo sapiens), O75874 [R132H]
- protocol_summary: Inhibition of recombinant human IDH1 R132H mutant extracted from Escherichia coli BL21 (DE3) cells using alpha-ketoglutarate as substrate at 2 uM incubated for 60 mins in presence of NADPH by absorbance based assay relative to control
Note: unit % is implicit; provide only the numeric part.

See these solved cases before continuing.
> print(dat)
                                   compound  unit.symbol  reported.result
1  COc1cc(O)c(-c2cc(-c3ccc(O)cc3)nc(-c3cccnc3)n2)cc1CC=C(C)C            %             48.3
2  COc1cc(O)c(-c2cc(-c3ccc(O)cc3)ncn2)cc1CC=C(C)C            %             47.2
3  COc1cc(O)c(-c2cc(-c3ccc(O)cc3)nc(-c3ccccn3)n2)cc1CC=C(C)C            %               74
4  COc1cc(O)c(-c2cc(-c3ccc(O)cc3)[nH]n2)cc1CC=C(C)C            %             17.5
5  COc1cc(O)c(-c2cc(-c3ccc(O)cc3)nc(-c3ccncc3)n2)cc1CC=C(C)C            %             56.7
6  COc1cc(O)c(-c2cc(-c3ccc(O)cc3)nc(N3CCN(C(C)=O)CC3)n2)cc1CC=C(C)C            %             61.2
7  CC(Cc1ccc(O)c(O)c1)C(C)Cc1ccc(O)c(O)c1 (centres undefined) [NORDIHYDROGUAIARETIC ACID]            %             51.2

Query compound follows.
IN: What value of inhibition has been recorded for this entry: COc1cc(O)c(-c2cc(-c3ccc(O)cc3)nc(N3CCCC3)n2)cc1CC=C(C)C
OUT: 70.2

----------
- protocol_summary: Oral bioavailability in Sprague-Dawley rat at 5 mg/kg measured after 24 hrs by LC-MS/MS analysis
- Format: ADME, organism-based
- condition: in vivo
quantity_measured: bioavailability (%)
Could you give me the number in %? Just the number is fine.

IN: Sample COc1cc(O)c(-c2cc(-c3ccc(O)cc3)nc(N3CCNCC3)n2)cc1CC=C(C)C — what was its bioavailability?
OUT: 16.8

Just for reference, ChEMBL document CHEMBL5608173 is where these values come from.
